Source: patent US8343957B2

Entries and their measured IC50 follow.
- study_target: GABAA central benzodiazepine receptor
- measurement_description: Benzodiazepine Binding Assay
- condition_details: read-out: BZ binding Assay IC50; 1 nM (3H)-flunitrazepam, rat whole brain (except cerebellum) membranes, 60 minutes at 25° C.

Answered cases to consult:
- smiles_structure: "CC(C)N1CCN(C(=O)n2cc3c(=O)n(-c4ccccc4F)nc-3c3ccccc32)CC1"
  IC50: "< 1000 nM"
- smiles_structure: "CC(C)N1CCN(C(=O)n2cc3c(=O)n(-c4ccccc4)nc-3c3cc(C(F)(F)F)ccc32)CC1"
  IC50: "< 1 nM"
- smiles_structure: "CC(C)N1CCN(C(=O)n2cc3c(=O)n(-c4ccccn4)nc-3c3cc(F)c(F)cc32)CC1"
  IC50: "> 1000 nM"

# query: IC50 of entry CN1CCN(C(=O)n2cc3c(=O)n(-c4ccccc4)nc-3c3cc(F)ccc32)CC1
< 1000 nM

###

- study_target: GABAA central benzodiazepine receptor
- measurement_description: Benzodiazepine Binding Assay
- condition_details: read-out: BZ binding Assay IC50; 1 nM (3H)-flunitrazepam, rat whole brain (except cerebellum) membranes, 60 minutes at 25° C.
result_type: IC50

Answered cases to consult:
- smiles_structure: "O=C(N1CCOCC1)n1cc2c(=O)n(-c3ccccc3)nc-2c2ccccc21"
  study_target: "GABAA central benzodiazepine receptor"
  IC50: "> 1 µM"
- smiles_structure: "CN1CCN(C(=O)n2cc3c(=O)n(-c4ccsc4)nc-3c3cc(F)c(F)cc32)CC1"
  study_target: "GABAA central benzodiazepine receptor"
  IC50: "< 1 µM"
- smiles_structure: "C=CCN1CCN(C(=O)n2cc3c(=O)n(-c4ccccc4)nc-3c3ccccc32)CC1"
  study_target: "GABAA central benzodiazepine receptor"
  IC50: "< 1 µM"

Now look at this entry.
# query: IC50 of entry COc1ccc2c(c1)c1nn(-c3ccccc3)c(=O)c-1cn2C(=O)N1CCN(C(C)C)CC1
< 1 µM
